# assay_target: T1, RSV F glycoprotein (NUF4) (respiratory syncytial virus)
# T1 chain 1: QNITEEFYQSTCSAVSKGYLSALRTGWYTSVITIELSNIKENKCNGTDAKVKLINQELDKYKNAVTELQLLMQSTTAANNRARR
# T1 chain 2: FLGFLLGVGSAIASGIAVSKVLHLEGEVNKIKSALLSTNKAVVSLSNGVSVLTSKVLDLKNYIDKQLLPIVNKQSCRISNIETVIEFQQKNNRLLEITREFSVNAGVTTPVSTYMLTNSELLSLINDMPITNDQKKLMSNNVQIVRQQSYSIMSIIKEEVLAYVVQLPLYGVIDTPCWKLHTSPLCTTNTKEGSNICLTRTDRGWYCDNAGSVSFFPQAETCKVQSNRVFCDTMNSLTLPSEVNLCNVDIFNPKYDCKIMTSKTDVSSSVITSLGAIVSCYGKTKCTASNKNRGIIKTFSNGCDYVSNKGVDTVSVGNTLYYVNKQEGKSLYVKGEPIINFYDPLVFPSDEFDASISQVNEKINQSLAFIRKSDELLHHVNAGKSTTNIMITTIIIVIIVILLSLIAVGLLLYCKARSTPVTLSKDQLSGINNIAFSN
# assay_text: BIAcore, mAb vs NUF4 (1:1)

| binder | units_text | kon |
| --- | --- | --- |
| A4B4 (monoclonal antibody) (antibody, V domains shown, mAb; also called A4B4/A4B4 (HC/LC)) VH: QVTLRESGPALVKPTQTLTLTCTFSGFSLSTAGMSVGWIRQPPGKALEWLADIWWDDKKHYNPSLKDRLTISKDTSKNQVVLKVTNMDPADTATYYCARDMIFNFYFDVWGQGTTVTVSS VL: DIQMTQSPSTLSASVGDRVTITCSASSRVGYMHWYQQKPGKAPKLLIYDTFFLDSGVPSRFSGSGSGTEFTLTISSLQPDDFATYYCFQGSGYPFTFGGGTKLEIK | M⁻¹ s⁻¹ | 496000 |
| P11d4 (monoclonal antibody) (antibody, V domains shown, mAb with framework and constant regions of SYNAGIS) VH: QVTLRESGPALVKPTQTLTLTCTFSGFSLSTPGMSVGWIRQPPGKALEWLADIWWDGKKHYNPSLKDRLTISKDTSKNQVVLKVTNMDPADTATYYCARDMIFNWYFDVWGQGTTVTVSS VL: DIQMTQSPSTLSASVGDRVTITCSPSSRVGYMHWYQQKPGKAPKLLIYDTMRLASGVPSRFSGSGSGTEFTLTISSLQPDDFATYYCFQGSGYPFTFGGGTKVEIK | M⁻¹ s⁻¹ | 904000 |
| A12a6 (monoclonal antibody) (antibody, V domains shown, mAb with framework and constant regions of SYNAGIS) VH: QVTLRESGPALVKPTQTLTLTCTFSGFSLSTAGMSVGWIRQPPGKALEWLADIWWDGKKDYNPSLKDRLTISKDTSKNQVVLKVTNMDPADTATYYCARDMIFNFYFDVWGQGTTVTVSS VL: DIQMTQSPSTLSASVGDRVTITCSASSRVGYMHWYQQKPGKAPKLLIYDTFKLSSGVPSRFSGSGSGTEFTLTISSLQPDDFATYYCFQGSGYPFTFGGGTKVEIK | M⁻¹ s⁻¹ | 400000 |
| P12f4 (monoclonal antibody) (antibody, V domains shown, mAb with framework and constant regions of SYNAGIS) VH: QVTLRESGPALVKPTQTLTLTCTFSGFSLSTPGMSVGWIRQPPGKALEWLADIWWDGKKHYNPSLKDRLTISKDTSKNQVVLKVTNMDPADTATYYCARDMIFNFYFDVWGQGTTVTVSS VL: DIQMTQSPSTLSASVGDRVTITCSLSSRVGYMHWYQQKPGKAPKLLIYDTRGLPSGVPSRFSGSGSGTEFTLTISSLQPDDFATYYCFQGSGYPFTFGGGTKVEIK | M⁻¹ s⁻¹ | 943000 |
| A17d4 (monoclonal antibody) (antibody, V domains shown, mAb with framework and constant regions of SYNAGIS) VH: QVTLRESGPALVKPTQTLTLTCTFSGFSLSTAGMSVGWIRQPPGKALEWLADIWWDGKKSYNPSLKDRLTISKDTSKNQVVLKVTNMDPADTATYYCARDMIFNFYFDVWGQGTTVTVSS VL: DIQMTQSPSTLSASVGDRVTITCLPSSRVGYMHWYQQKPGKAPKLLIYDTMYQASGVPSRFSGSGSGTEFTLTISSLQPDDFATYYCFQFSGYPFTFGGGTKLEIK | M⁻¹ s⁻¹ | 499000 |
| P12f2 (monoclonal antibody) (antibody, V domains shown, mAb with framework and constant regions of SYNAGIS; also called Pf12) VH: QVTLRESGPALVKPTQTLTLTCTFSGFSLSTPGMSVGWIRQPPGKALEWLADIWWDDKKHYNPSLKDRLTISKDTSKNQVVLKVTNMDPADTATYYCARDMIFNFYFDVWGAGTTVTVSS VL: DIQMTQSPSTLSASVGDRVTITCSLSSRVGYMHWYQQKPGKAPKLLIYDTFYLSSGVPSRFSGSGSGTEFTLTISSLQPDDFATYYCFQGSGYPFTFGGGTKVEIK | M⁻¹ s⁻¹ | 541000 |
| A8c7 (monoclonal antibody) (antibody, V domains shown, mAb with framework and constant regions of SYNAGIS) VH: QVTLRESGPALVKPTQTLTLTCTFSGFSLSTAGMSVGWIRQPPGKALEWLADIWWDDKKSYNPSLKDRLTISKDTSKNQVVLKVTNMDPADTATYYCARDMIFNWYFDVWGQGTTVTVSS VL: DIQMTQSPSTLSASVGDRVTITCSASSRVGYMHWYQQKPGKAPKLLIYDTRYQSSGVPSRFSGSGSGTEFTLTISSLQPDDFATYYCFQGSGYPFTFGGGTKLEIK | M⁻¹ s⁻¹ | 825000 |
| A13c4 (monoclonal antibody) (antibody, V domains shown, mAb with framework and constant regions of SYNAGIS) VH: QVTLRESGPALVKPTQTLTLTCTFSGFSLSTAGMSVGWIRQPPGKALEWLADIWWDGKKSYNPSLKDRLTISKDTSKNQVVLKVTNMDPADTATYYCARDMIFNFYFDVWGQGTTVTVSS VL: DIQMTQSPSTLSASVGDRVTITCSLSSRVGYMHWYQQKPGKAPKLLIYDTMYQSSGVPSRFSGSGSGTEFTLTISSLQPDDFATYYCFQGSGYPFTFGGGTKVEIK | M⁻¹ s⁻¹ | 365000 |
| A1e9 (monoclonal antibody) (antibody, V domains shown, mAb with framework and constant regions of SYNAGIS; also called Ale9) VH: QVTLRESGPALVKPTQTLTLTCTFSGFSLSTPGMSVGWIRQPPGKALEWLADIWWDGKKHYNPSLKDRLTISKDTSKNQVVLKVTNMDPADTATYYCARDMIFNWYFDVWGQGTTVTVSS VL: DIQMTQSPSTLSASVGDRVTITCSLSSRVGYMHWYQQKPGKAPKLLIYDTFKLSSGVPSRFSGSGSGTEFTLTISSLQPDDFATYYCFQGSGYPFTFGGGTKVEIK | M⁻¹ s⁻¹ | 843000 |
